# System: human breast cancer MCF7 cells
# testMethodNotes: Orthotopic transplantation tumor model of human breast cancer MCF7 cells
# Type: in vivo, BALB/c nude mice
# protocolConditions: after administration for 28 days
measurementLabel: Mice tumor weight after experiment (g)
Value expressed in g; do not type the unit.

[Q] Give Mice tumor weight after experiment for the following molecule: rLZ-8 (D45A): alanine mutant of rLZ-8 at D45 (protein) MSDTALIFRLAWDVKKLSFDYTPNWGRGNPNNFIDTVTFPKVLTAKAYTYRVAVSGRNLGVKPSYAVESDGSQKVNFLEYNSGYGIADTNTIQVFVVDPDTNNDFIIAQWN
[A] 1.08

[Q] Using known records, supply Mice tumor weight after experiment for rLZ-8 (K46E/K74E): rLZ-8 mutant K46E and K74E (protein) MSDTALIFRLAWDVKKLSFDYTPNWGRGNPNNFIDTVTFPKVLTDEAYTYRVAVSGRNLGVKPSYAVESDGSQEVNFLEYNSGYGIADTNTIQVFVVDPDTNNDFIIAQWN
[A] 0.73

[Q] Check the records and state Mice tumor weight after experiment for rLZ-8 (M1A/R9A/D100A): rLZ-8 mutant named only in Tables 2, 3, 7 and 8 (protein) ASDTALIFALAWDVKKLSFDYTPNWGRGNPNNFIDTVTFPKVLTDKAYTYRVAVSGRNLGVKPSYAVESDGSQKVNFLEYNSGYGIADTNTIQVFVVDPATNNDFIIAQWN
[A] 0.77

[Q] Note Mice tumor weight after experiment for the molecule shown: rLZ-8 (R9A): alanine mutant of rLZ-8 at R9 (protein) MSDTALIFALAWDVKKLSFDYTPNWGRGNPNNFIDTVTFPKVLTDKAYTYRVAVSGRNLGVKPSYAVESDGSQKVNFLEYNSGYGIADTNTIQVFVVDPDTNNDFIIAQWN
[A] 0.79

[Q] Output Mice tumor weight after experiment of rLZ-8 (K41D/K46E/K74E): rLZ-8 mutant K41D, K46E and K74E (protein) MSDTALIFRLAWDVKKLSFDYTPNWGRGNPNNFIDTVTFPDVLTDEAYTYRVAVSGRNLGVKPSYAVESDGSQEVNFLEYNSGYGIADTNTIQVFVVDPDTNNDFIIAQWN
[A] 1.10

[Q] Respond only with Mice tumor weight after experiment recorded for rLZ-8 (D20H/D70K): rLZ-8 mutant after surface potential optimization, D20H and D70K (protein) MSDTALIFRLAWDVKKLSFHYTPNWGRGNPNNFIDTVTFPKVLTDKAYTYRVAVSGRNLGVKPSYAVESKGSQKVNFLEYNSGYGIADTNTIQVFVVDPDTNNDFIIAQWN
[A] 0.60
